B1: glmS ribozyme (parent)
chain: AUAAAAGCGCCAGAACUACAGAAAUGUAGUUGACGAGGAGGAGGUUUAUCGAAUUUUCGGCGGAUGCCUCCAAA

variants of: B1; assay: self-cleavage kobs at 10000 uM GlcN6P; higher = faster cleavage; RNA array; conditions: with glucosamine-6-phosphate
Fewer inactive variants are shown than the library holds.
self-cleavage kobs at 10000 uM GlcN6P values, listed per item
Record the value in s⁻¹, omitting the unit from your answer.

Field: example entries. Status: answers known.
Notebook: AUAAAAGCGCCAGAACUACAGAAAUGUAGUUGACGAGGAGGAGGUUUAUCGAAUUGUCGGCGGAUGCCUUCAAA , self-cleavage kobs at 10000 uM GlcN6P read as 0.00182

Notebook: AUAAAAGCGCCAGAACUACAGAAAUGUAGUUGACGAAGAGGAGAUUUAUCGAAUUUUCGGCGGAUGCCUCCAAA , self-cleavage kobs at 10000 uM GlcN6P read as 2.6e-05

Notebook: AUAAAAGCGCCAGAACUACAGAAAUGUAGUUGACGAGGGGGAGGUUUAUCGAAUUUCCGGCGGAUGCCUCCAAA , self-cleavage kobs at 10000 uM GlcN6P read as 0.000351

Notebook: AUAAAAGCGCCAUAACUACAGAAAUGUAGUGGACGAGGAGGAGGUUUAUCGAAUUUUCGGCGGGUGCCUCCAAA , self-cleavage kobs at 10000 uM GlcN6P read as 0.00021

Notebook: AUAAAAGCGCCAGAACUACAGAAAUGUAGUUGACGAAGAGGAGGCUUAUCGAAUUUUCGGCGGAUGCCUCCAAA , self-cleavage kobs at 10000 uM GlcN6P read as 0.000173

Notebook: AUAAAAGCGCCAGAACUACAGAAAUGUAGUGGACGAGGAGGAGGUUUAUCGAAUUUUCGGCGGAUGUCUCCAAA , self-cleavage kobs at 10000 uM GlcN6P read as 0.00391

Notebook: AUAAAAGCGCCAGAACUACAGAAAUGUAGUUGACGAGGAGGAGGUUUAUCGUAUUUUCGGCGGAUGUCUCCAAA , self-cleavage kobs at 10000 uM GlcN6P read as 0.00028

Notebook: AUAAAAGCGCCAGCACUACAGAAAUGUAGUUGACGAGGAGGAGGUUUAUCGAAUUUUCGGCGGAUGCGUCCAAA , self-cleavage kobs at 10000 uM GlcN6P read as 2.58e-05

Notebook: AUAAAAGCGCCAGAACUACAGAAAUGUAGUAGACGAGGAGGAGAUUUAUCGAAUUUUCGGCGGAUGCCUCCAAA , self-cleavage kobs at 10000 uM GlcN6P read as 0.000151

Notebook: AUAAAAGCGCCAGAACUACAGAAAUGUAGGUGACGAGGAGGAGGAUUAUCGAAUUUUGGGCGGAUGCCUCCAAA , self-cleavage kobs at 10000 uM GlcN6P read as 0.000163

Turning now to a further record.
Notebook: AUAAAAGCGCCUGAACUACAGAAAUGUAGUUGACGAGGAGGUGGUUUAUCGAAUUUUCGGCGGAUGCCUUCAAA , self-cleavage kobs at 10000 uM GlcN6P read as 0.00014
